assay target: Serine/threonine-protein kinase TNNI3K (Homo sapiens)
Sequence (Q59H18 whole entry): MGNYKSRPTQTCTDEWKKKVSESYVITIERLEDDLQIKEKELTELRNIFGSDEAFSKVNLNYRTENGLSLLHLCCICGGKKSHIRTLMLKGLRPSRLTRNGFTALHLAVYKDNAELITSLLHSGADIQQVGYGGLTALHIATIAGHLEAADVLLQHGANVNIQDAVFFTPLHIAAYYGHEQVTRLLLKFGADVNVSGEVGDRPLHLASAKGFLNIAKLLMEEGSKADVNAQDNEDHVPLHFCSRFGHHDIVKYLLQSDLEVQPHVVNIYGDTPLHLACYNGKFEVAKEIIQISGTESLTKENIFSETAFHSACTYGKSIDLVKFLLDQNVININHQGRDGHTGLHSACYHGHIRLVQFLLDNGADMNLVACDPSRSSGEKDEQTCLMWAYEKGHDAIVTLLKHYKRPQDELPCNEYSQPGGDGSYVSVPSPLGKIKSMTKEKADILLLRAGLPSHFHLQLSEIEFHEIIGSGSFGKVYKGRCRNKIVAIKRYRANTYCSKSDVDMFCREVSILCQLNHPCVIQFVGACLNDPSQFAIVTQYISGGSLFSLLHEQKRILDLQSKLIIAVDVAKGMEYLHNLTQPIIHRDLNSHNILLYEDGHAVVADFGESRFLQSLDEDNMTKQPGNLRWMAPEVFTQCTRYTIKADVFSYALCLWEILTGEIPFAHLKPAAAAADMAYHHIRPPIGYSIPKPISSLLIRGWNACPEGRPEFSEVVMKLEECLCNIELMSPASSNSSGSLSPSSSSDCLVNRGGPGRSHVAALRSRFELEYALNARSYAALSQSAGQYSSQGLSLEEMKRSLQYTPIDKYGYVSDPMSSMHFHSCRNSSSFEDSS
pIC50: −log10 of the molar value.
Would you mind labelling by pIC50? At or over 7 is yes (1), under is no (0).

// below: answered compounds
CNS(=O)(=O)c1ccc(N(C)C)c(Nc2ncnc(Nc3ccc(Cl)cc3)n2)c1
yes (1)
CNS(=O)(=O)c1ccc(N(C)C)c(Nc2ncnc3ccc([N+](=O)[O-])cc23)c1
no (0)
CNS(=O)(=O)c1ccc(OC)c(Nc2cc(Nc3ccc(Cl)cc3)ncn2)c1
yes (1)
CNS(=O)(=O)c1ccc(F)c(Nc2ncnc3[nH]ccc23)c1
no (0)
CNc1ccc(S(=O)(=O)NC)cc1Nc1cc(Nc2ccc(Cl)cc2)ncn1
no (0)

For this compound, is measured pIC50 7 or higher? CCNc1ccc(S(=O)(=O)NC)cc1Nc1cc(Nc2ccc(Cl)cc2)ncn1
no (0)

Please do the same for CNS(=O)(=O)c1ccc(N(C)CC(F)(F)F)c(Nc2ncnc3[nH]ccc23)c1 as well.
yes (1)

Note, next up: CNS(=O)(=O)c1ccc(OCC(F)(F)F)c(Nc2ncnc3[nH]ccc23)c1
yes (1)

###

assay target: Serine/threonine-protein kinase TNNI3K (Homo sapiens)
Sequence (Q59H18 whole entry): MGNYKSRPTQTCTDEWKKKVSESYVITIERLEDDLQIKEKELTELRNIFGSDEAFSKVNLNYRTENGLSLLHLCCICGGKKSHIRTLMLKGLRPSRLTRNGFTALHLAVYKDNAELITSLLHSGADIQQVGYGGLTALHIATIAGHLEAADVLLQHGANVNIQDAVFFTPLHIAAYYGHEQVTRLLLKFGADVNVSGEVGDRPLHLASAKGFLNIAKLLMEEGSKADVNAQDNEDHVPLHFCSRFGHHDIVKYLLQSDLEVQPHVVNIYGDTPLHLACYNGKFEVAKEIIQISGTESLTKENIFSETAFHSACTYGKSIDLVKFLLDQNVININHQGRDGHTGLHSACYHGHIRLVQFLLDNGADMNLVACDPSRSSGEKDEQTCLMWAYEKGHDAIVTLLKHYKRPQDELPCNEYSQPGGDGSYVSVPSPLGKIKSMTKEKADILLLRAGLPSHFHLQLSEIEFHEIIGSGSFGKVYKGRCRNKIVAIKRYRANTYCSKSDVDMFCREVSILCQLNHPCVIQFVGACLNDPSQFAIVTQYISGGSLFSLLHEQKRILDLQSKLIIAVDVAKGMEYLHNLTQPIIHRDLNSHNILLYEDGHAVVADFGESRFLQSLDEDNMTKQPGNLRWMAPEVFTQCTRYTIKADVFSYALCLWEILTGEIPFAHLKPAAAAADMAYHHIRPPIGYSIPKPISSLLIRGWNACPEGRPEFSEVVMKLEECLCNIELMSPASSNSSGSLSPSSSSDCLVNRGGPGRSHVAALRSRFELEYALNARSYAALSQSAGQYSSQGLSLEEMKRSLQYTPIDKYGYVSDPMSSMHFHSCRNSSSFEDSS
measurement type: log10(IC50) (log10 of the value in nM)
Log10 applied to IC50; unit prior to transform: nM.

I have this compound here, CNS(=O)(=O)c1ccc(N2CCC(F)(F)C2)c(Nc2cc(Nc3ccc(Cl)cc3)ncn2)c1 , and I need its recorded log10(IC50).
3.00

# repeat for CNS(=O)(=O)c1ccc(N(C)C)c(Nc2ncnc3ccc(Cl)cc23)c1
2.60

Now consider CNS(=O)(=O)c1ccc(OCC(F)(F)F)c(Nc2cc(Nc3ccc(Cl)cc3)ncn2)c1 .
1.40

Same for CNS(=O)(=O)c1ccc(N2CCCC2)c(Nc2cc(Nc3ccc(Cl)cc3)ncn2)c1
3.11

Another: CNS(=O)(=O)c1ccc(N(C)C)c(Nc2ncnc3[nH]cnc23)c1
1.20

Same for CNS(=O)(=O)c1ccc(N2CCCC2C)c(Nc2ncnc3[nH]ccc23)c1 (stereo unspecified)
2.11
